# ASSAY OVERVIEW: NCI Yeast Anticancer Drug Screen. Data for the rad50 strain (AID 155);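 also: 0% = growth of vehicle-only cultures of the same strain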
# CONDITION NOTES: S. cerevisiae rad50 strain growth inhibition; at 50.0 µM (retest, dose inferred, filed as 5.0); hits give high values
Compounds without any hit were thinned out: in the full panel of roughly 79,000, 15% have a hit. Activity calls are given as the source filed them. Rule as the data show it: active = growth inhibition above about 70%; inactive = the rest.
Documented growth inhibition across a set of compounds
EXPERIMENTAL ENDPOINT: growth inhibition

[[record]]
compound = "COc1ccc2c(c1O)C13CCN(C)C(C2)C12C=CC(=O)C3c1c(O)ccc(O)c12 (stereo not given)"
experimental_endpoint = "growth inhibition"
observed_result = "59% (inactive)"

[[record]]
compound = "CCCCC(CC)CNP(=S)(NCC(CC)CCCC)NCC(CC)CCCC (stereo not given)"
experimental_endpoint = "growth inhibition"
observed_result = "37% (inactive)"

[[record]]
compound = "[N-]=[N+]=C1C(Cl)=C(Cl)C(Cl)=C1Cl"
experimental_endpoint = "growth inhibition"
observed_result = "96% (active)"

[[record]]
compound = "CN(C)C(=O)Oc1c(Cl)cc(Cl)c(Cl)c1Cl"
experimental_endpoint = "growth inhibition"
observed_result = "16% (inactive)"

[[record]]
compound = "CN1CSC(=S)N(C)C1"
experimental_endpoint = "growth inhibition"
observed_result = "95% (active)"

[[record]]
compound = "O=c1ssc(Cl)c1Cl"
experimental_endpoint = "growth inhibition"
observed_result = "98% (active)"

[[record]]
compound = "O=P1(NCCCl)OC(c2ccccc2)=CCN1CCCl (stereo not given)"
experimental_endpoint = "growth inhibition"
observed_result = "-1% (inactive)"

[[record]]
compound = "CC1(C)N=C(N)N=C(N)N1c1cccc(N)c1.[Sn]"
experimental_endpoint = "growth inhibition"
observed_result = "36% (inactive)"

[[record]]
compound = "O=c1oc2ccccc2c(O)c1C(c1ccc2ccccc2c1)c1c(O)c2ccccc2oc1=O"
experimental_endpoint = "growth inhibition"
observed_result = "93% (active)"

[[record]]
compound = "[O-][n+]1onc2ccccc21"
experimental_endpoint = "growth inhibition"
observed_result = "99% (active)"

[[record]]
compound = "Cc1cn(CC2C=CC(CS[As](C)C)O2)c(=O)[nH]c1=O (stereo not given)"
experimental_endpoint = "growth inhibition"
observed_result = "75% (active)"

[[record]]
compound = "CCCCN(CC)CC(C(C)=O)c1c(O)c2ccccc2oc1=O (stereo not given)"
experimental_endpoint = "growth inhibition"
observed_result = "22% (inactive)"

[[record]]
compound = "C/C(=N\\N)C(CN1CCCCC1)C(c1ccccc1)c1c(O)c2ccccc2oc1=O (stereo not given)"
experimental_endpoint = "growth inhibition"
observed_result = "3% (inactive)"

[[record]]
compound = "CCOP(=O)(OCC)/C(C#N)=C/c1cccc(Br)c1"
experimental_endpoint = "growth inhibition"
observed_result = "88% (active)"

[[record]]
compound = "CC1CCOC(=O)/C=C/C=C/C(=O)OC2CC3OC4C5OC5(C)C(O)CC4(COC(=O)C1O)C2(C)C31CO1 (stereo not given)"
experimental_endpoint = "growth inhibition"
observed_result = "95% (active)"

[[record]]
compound = "c1ccc2c(c1)[As]=c1ccccc1=[As]2 (stereo not given)"
experimental_endpoint = "growth inhibition"
observed_result = "99% (active)"

[[record]]
compound = "[Cl][Sn]([c]1ccccc1)[c]1ccccc1"
experimental_endpoint = "growth inhibition"
observed_result = "93% (active)"

[[record]]
compound = "CC12CCC(C)(c3cc(O)c(O)cc31)c1cc(O)c(O)cc12"
experimental_endpoint = "growth inhibition"
observed_result = "4% (inactive)"

[[record]]
compound = "ClCCN(CCCl)c1ccc(C=NCCCCN=Cc2ccc(N(CCCl)CCCl)cc2)cc1"
experimental_endpoint = "growth inhibition"
observed_result = "82% (active)"

[[record]]
compound = "CC1(C)OCC(COC(=O)C=[N+]=[N-])O1 (stereo not given)"
experimental_endpoint = "growth inhibition"
observed_result = "-10% (inactive)"

[[record]]
compound = "CC(=O)Nc1ccc(/C=N/N=C(/N)N[N+](=O)[O-])cc1"
experimental_endpoint = "growth inhibition"
observed_result = "-1% (inactive)"

[[record]]
compound = "c1ccc(P(CCP(c2ccccc2)c2ccccc2)CCP(c2ccccc2)c2ccccc2)cc1"
experimental_endpoint = "growth inhibition"
observed_result = "98% (active)"

[[record]]
compound = "[Br][Cd][Br].c1ccc([PH+](c2ccccc2)c2ccccc2)cc1.c1ccc([PH+](c2ccccc2)c2ccccc2)cc1"
experimental_endpoint = "growth inhibition"
observed_result = "95% (active)"

[[record]]
compound = "COC([CH2][Hg][n]1cnc2c1c(=O)n(C)c(=O)n2C)CN1C(=O)c2ccccc2S1(=O)=O (stereo not given)"
experimental_endpoint = "growth inhibition"
observed_result = "94% (active)"

[[record]]
compound = "COc1ccc(CNCCc2ccc(O)c(OC)c2)cc1O"
experimental_endpoint = "growth inhibition"
observed_result = "0% (inactive)"

[[record]]
compound = "CCCN1CN(c2ccccc2)C2(CCN(CCCC(=O)c3ccc(F)cc3)CC2)C1=O"
experimental_endpoint = "growth inhibition"
observed_result = "17% (inactive)"

[[record]]
compound = "Oc1c(Cl)c(Cl)c(Cl)c(Cl)c1Cl (tested in a mixture with another compound)"
experimental_endpoint = "growth inhibition"
observed_result = "99% (active)"

[[record]]
compound = "COC(=O)C1=C(C(=O)OC)[C]([Hg][CH3])(C(C)=O)N=N1 (stereo not given)"
experimental_endpoint = "growth inhibition"
observed_result = "99% (active)"

[[record]]
compound = "COC1=[C]([Hg][Br])C(OC)OC1OC (stereo not given)"
experimental_endpoint = "growth inhibition"
observed_result = "99% (active)"

[[record]]
compound = "O=C(O)/C=C\\c1c[nH]c2ccccc12"
experimental_endpoint = "growth inhibition"
observed_result = "97% (active)"

[[record]]
compound = "N#CC(C#N)=Cc1ccc2c(c1)OC(Cl)O2 (stereo not given)"
experimental_endpoint = "growth inhibition"
observed_result = "46% (inactive)"

[[record]]
compound = "Cn1cnc(N)c1C(=N)[Se]"
experimental_endpoint = "growth inhibition"
observed_result = "89% (active)"

[[record]]
compound = "CC1=C(CO)C(=O)OC(C(C)C2CCC3C4CC5OC56C(O)C(N5CC5)=CC(=O)C6(C)C4CCC23C)C1 (stereo not given)"
experimental_endpoint = "growth inhibition"
observed_result = "43% (inactive)"

[[record]]
compound = "O=P(Oc1ccc(Cl)cc1)(Oc1ccc(Cl)cc1)N1CC1"
experimental_endpoint = "growth inhibition"
observed_result = "43% (inactive)"

[[record]]
compound = "Oc1cccc2nc3ccccc3nc12"
experimental_endpoint = "growth inhibition"
observed_result = "73% (active)"

[[record]]
compound = "O=C(O)CN(CCN(CC(=O)O)CC(=O)O)CC(=O)O"
experimental_endpoint = "growth inhibition"
observed_result = "69% (inactive)"

[[record]]
compound = "Cc1cc[n+](C2=C(Nc3cc(C)cc(C)c3)C(=O)c3ccccc3C2=O)cc1"
experimental_endpoint = "growth inhibition"
observed_result = "9% (inactive)"

[[record]]
compound = "COC1=CC(C)(C)C=C([Se][Se]C2=CC(C)(C)C=C(OC)C2=O)C1=O"
experimental_endpoint = "growth inhibition"
observed_result = "79% (active)"

[[record]]
compound = "O=[N+]([O-])c1ccc2c[n+]3ccccc3cc2c1"
experimental_endpoint = "growth inhibition"
observed_result = "84% (active)"

[[record]]
compound = "C1CC[CH]([Sn]([CH]2CCCCC2)[CH]2CCCCC2)CC1.C1CC[CH]([Sn]([CH]2CCCCC2)[CH]2CCCCC2)CC1"
experimental_endpoint = "growth inhibition"
observed_result = "34% (inactive)"

[[record]]
compound = "NC(=O)c1ccc(N)nc1"
experimental_endpoint = "growth inhibition"
observed_result = "30% (inactive)"

[[record]]
compound = "Nc1c(Cl)cccc1C(=O)O"
experimental_endpoint = "growth inhibition"
observed_result = "4% (inactive)"

[[record]]
compound = "CCN(CCCl)c1cc(CN(C)C)cc(NC(=O)c2ccc(C(=O)Nc3cc(CN(C)C)cc(N(CC)CCCl)c3)cc2)c1"
experimental_endpoint = "growth inhibition"
observed_result = "93% (active)"

[[record]]
compound = "Cc1oc2c([N+](=O)[O-])cccc2c1[N+](=O)[O-]"
experimental_endpoint = "growth inhibition"
observed_result = "98% (active)"

[[record]]
compound = "O=c1[nH]cnc2[nH]cc(CN3CCCCC3)c12"
experimental_endpoint = "growth inhibition"
observed_result = "21% (inactive)"

